Where these numbers come from: PubChem BioAssay (NCI)

# Test system: M14 melanoma
# measurement_notes: NCI tumour cell line growth inhibition, 48 h; in the data active = GI50 below about 0.43 µM; inactive = the rest
I would appreciate it if you answered using one of these outcomes: true = active, false = inactive

• NCCNc1c2c(c(NCCN)c3[nH]ccc13)C(=O)c1ccccc1C2=O = false

Tell me the assay call for Cc1ncc(C(=O)Nc2ccc(CN3CCN(C)CC3)c(C(F)(F)F)c2)cc1C#Cc1cnc(N)c2ccncc12 please.
false

Tell me the assay call for COc1ccc2[nH]cc(C3(c4c[nH]c5ccc(OC)cc45)C(=O)Nc4ccc(F)cc43)c2c1 please.
false

* * *

# Tested on: OVCAR-5 ovarian
# measurement_notes: NCI tumour cell line growth inhibition, 48 h
Each entry below lists one item and its recorded TGI value.

Some solved cases for reference:
* O=C(c1ccccc1Br)C(F)(F)F | > 100 µM
* O=C(CCc1n[nH]c(=S)o1)Nc1ccccc1C(F)(F)F | > 100 µM
* N#Cc1c(-c2ccc(Cl)cc2Cl)nc2[nH][nH]c(=S)n2c1=O | > 100 µM
* CCCCCCOC(=O)/C=C/[C@]1(CO)C/C(=C/CC(C(C)C)C(C)C)C(=O)O1 | 25.6 µM
* CCOC(=O)Nc1ccc(-c2nc(-c3cccc(OCCN4CCOCC4)c3)c(-c3ccnc(Br)c3)[nH]2)cc1 | > 100 µM
* COc1ccc2cc(/C=N/NC(=O)Nc3ccccc3)ccc2c1 | > 100 µM
* CC#CCOC(=O)c1ccccc1OC(C)=O | > 100 µM
* NCc1ccccc1-c1c2nc(c(-c3ccccc3CN)c3ccc([nH]3)c(-c3ccccc3CN)c3nc(c(-c4ccccc4CN)c4ccc1[nH]4)C=C3)C=C2 | 33.8 µM

Recorded TGI for O=c1cnn(C/C=C/CO)c(=O)[nH]1 , please?
> 100 µM

Recorded TGI for CCOc1ccc(NC(=O)CC#N)cc1 , please?
> 100 µM

Recorded TGI for c1ccc(CCNc2ccccn2)nc1 , please?
> 100 µM

* * *

# Test system: SK-MEL-2 melanoma
# measurement_notes: NCI tumour cell line growth inhibition, 48 h
Where a SMILES comes first, the peptide text is derived from it. The star is where a group is joined. Cbz = O=C(OCc1ccccc1)*
reported_metric: TGI

Some solved cases for reference:
* COc1cc2c(c(OC)c1OC)-c1ccc(SC)c(=O)cc1C(NC=O)CC2 (configuration not stated) | > 94.7 µM
* Cc1cc(N(CCC#N)CCC#N)ccc1N=Nc1ccc(C(=O)O)cc1 | > 100 µM
* O=C(O)CCC(NC(=O)OCc1ccccc1)C(=O)NC(Cc1cnc[nH]1)C(=O)O (stereo not drawn) (Cbz-Glu-His-OH; configuration not given here) | > 100 µM
* C=CCCCCOc1ccccc1-c1cnc(OCCCCC=C)n1C | 5.88 µM
* COC(=O)c1cc2ccc(N)nc2[nH]c1=O | > 100 µM
* Cc1c2c(C#N)nccc2c(C)c2c1c1ccccc1n2Cc1ccccc1 | > 100 µM

Recorded TGI for O=c1[nH]nc(Cc2ccccc2)n1/N=C/c1ccccc1O , please?
> 100 µM

Recorded TGI for O=[N+]([O-])/C(C(Cl)=C(Cl)Cl)=C(/Cl)Sc1ccccc1 , please?
27.4 µM

Recorded TGI for OC1C#CCSCC#C/C=C\1 (configuration not stated) , please?
> 100 µM

* * *

# System: HOP-92 NSCLC
# measurement_notes: NCI tumour cell line growth inhibition, 48 h
reported_metric: GI50

Some solved cases for reference:
* CCOC(=O)Nc1ccc(-c2nc(-c3cccc(OCCN4CCOCC4)c3)c(-c3ccnc(Br)c3)[nH]2)cc1 | 2.77 µM
* Cn1cc(-c2csc(-c3c[nH]c4ccc(F)cc34)n2)c2cnccc21 | 1.49 µM
* CN1C(=O)N(C)C2C1NN=c1s/c(=C\c3ccc(Cl)cc3Cl)c(=O)n12 (centres undefined) | 0.406 µM
* CS(=O)(=O)CCNCc1nc(-c2ccc3ncnc(Nc4ccc(OCc5cccc(C(F)(F)F)c5)cc4)c3c2)cs1 | 3.68 µM
* O=C(c1ccccc1)c1cc2ccccc2o1 | 26.7 µM

Recorded GI50 for COc1cc(-c2cc(-c3cc4c([nH]c5ccccc54)c(-c4cc(OC)c(OC)c(OC)c4)n3)cc(-c3ccccc3)n2)cc(OC)c1OC , please?
1.45 µM

Recorded GI50 for O=C(CSc1nc2ccccc2nc1-c1ccccc1)Nc1ccc(F)cc1 , please?
20.3 µM

Recorded GI50 for Cn1cc(C2=C(c3cn(CCCCO)c4ccccc34)C(=O)NC2=O)c2ccccc21 , please?
17.1 µM

Recorded GI50 for COc1cc(Cn2c(-c3ccccc3)c(Cl)c3c2-c2oncc2CC3)cc(OC)c1 , please?
50 µM

* * *

# System: SF-539 CNS
# measurement_notes: NCI tumour cell line growth inhibition, 48 h
reported_metric: TGI (µM)
Record the value in µM, omitting the unit from your answer.

- O=C1/C(=C/c2ccccc2S)N=C(c2ccccc2)N1c1nc2c(Cl)cc(Cl)cc2s1: 40.8
- CN=C(N=Nc1c(O)[nH]c2ccccc12)SCC(=O)c1ccc(Br)cc1: 23.8
- CC1OC(OC2C(O)COC(OC3C(C)OC(OC4C(OC(=O)[C@]56CCC(C)(C)C[C@@H]5C5=CCC7[C@@]8(C)C[C@H](O)[C@H](OC9OC(CO)C(O)C(O)C9O)[C@@](C)(CO)[C@@H]8CC[C@@]7(C)[C@]5(C)CC6)OCC(O)C4O)C(O)C3OC3OCC(O)(CO)C3O)C2O)C(O)C(O)C1O (some centres undefined): 44.8
- CC(=O)c1c(C)n([O-])c2cc(Cl)c(Cl)cc2[n+]1=O: 72.5

Then there is this compound:
Recorded TGI for O=C1/C(=C/c2cccc(Cl)c2Cl)N=C(c2ccccc2)N1C1CC1 , please?
22.3

* * *

Each entry below lists one item and its recorded TGI value.
# Tested on: DU-145 prostate
# measurement_notes: NCI tumour cell line growth inhibition, 48 h

Some solved cases for reference:
* CC(C)Oc1ccc2cc(-c3nn(CC4CCNCC4)c4ncnc(N)c34)ccc2c1 | 28.4 µM
* COc1cc(-c2cc(-c3cc4c([nH]c5ccccc54)c(-c4cc(OC)c(OC)c(OC)c4)n3)cc(-c3ccccc3)n2)cc(OC)c1OC | > 100 µM
* CN(CC(=O)O)c1ncc2c(n1)CCCC2 | > 100 µM
* O=C1/C(=C/c2ccccc2S)N=C(c2ccccc2)N1c1nc2c(Cl)cc(Cl)cc2s1 | > 100 µM

Then there is this molecule:
API: value(readout=TGI, system=DU-145 prostate) for record COc1ccc2cc(/C=N/NC(=O)Nc3ccccc3)ccc2c1
> 100 µM

* * *

# Test system: LOX IMVI melanoma
# measurement_notes: NCI tumour cell line growth inhibition, 48 h
Each entry below lists one item and its recorded TGI value.
Record the value in µM, omitting the unit from your answer.

- CC(=O)c1c(C)n([O-])c2cc(Cl)c(Cl)cc2[n+]1=O: 46.4
- CCCN1C(=O)N(CCC)C2C1NC(=S)N2/N=C/C=C/c1ccccc1OC (stereo not given): 21.3
- CC12CC(c3ccccc3O1)C(C(=O)Nc1ccc(Cl)cc1Cl)C(=O)N2 (stereo not given): 49.5

Recorded TGI for COc1ccc(C(=O)/C=C/c2cc(-c3cc(OC)c(OC)c(OC)c3)n[nH]2)cc1OC , please?
2.76

* * *

# Tested on: KM12 colon
# measurement_notes: NCI tumour cell line growth inhibition, 48 h; in the data active = GI50 below about 0.43 µM; inactive = the rest
I would appreciate it if you answered using one of these outcomes: active, inactive

The following molecules have reported results that may help.
* O=C(CC1(O)C(=O)N(Cc2ccccc2)c2ccc(F)cc21)c1ccc(C(=O)NCC2CCC3(CC2)OOC2(CCCCC2)OO3)cc1 (stereo not given) | active
* CNCC#Cc1c(F)ccc2c1/C(=C/c1[nH]ccc1OC)C(=O)N2 | active
* CN1C(=O)N(C)C2C1NN=c1s/c(=C\c3ccc(Cl)cc3Cl)c(=O)n12 (stereo not given) | active

Tell me the assay call for CS(=O)(=O)CCNCc1nc(-c2ccc3ncnc(Nc4ccc(OCc5cccc(C(F)(F)F)c5)cc4)c3c2)cs1 please.
inactive

Tell me the assay call for C=C(Cl)C(Br)(CCl)CCC(Br)C(C)(C)Cl (stereo not given) please.
inactive

* * *

# Test system: SNB-75 CNS
# measurement_notes: NCI tumour cell line growth inhibition, 48 h
reported_metric: GI50

• COc1ccc(/C=C2/N=C(c3ccccc3)N(c3c(C)n(C)n(-c4ccccc4)c3=O)C2=O)cc1OC = 86.4 µM

Recorded GI50 for COc1cc(Cn2c(-c3ccccc3)c(Cl)c3c2-c2oncc2CC3)cc(OC)c1 , please?
5.03 µM

Recorded GI50 for O=C(Cn1c[n+](CC(=O)c2ccc(-c3ccccc3)cc2)c2ccccc21)Nc1cccc2cccnc12 , please?
1.65 µM

Recorded GI50 for C=C(C)[C@@H]1CC[C@]2(C)[C@H](CC=C3[C@@H]4CC(C)(C)CC[C@]4(C(N)=O)CC[C@]32C)[C@@]1(C)CCC#N , please?
2.33 µM
